- systemTested: Mitogen-activated protein kinase 14 (Homo sapiens)
- Sequence (Q16539 whole entry): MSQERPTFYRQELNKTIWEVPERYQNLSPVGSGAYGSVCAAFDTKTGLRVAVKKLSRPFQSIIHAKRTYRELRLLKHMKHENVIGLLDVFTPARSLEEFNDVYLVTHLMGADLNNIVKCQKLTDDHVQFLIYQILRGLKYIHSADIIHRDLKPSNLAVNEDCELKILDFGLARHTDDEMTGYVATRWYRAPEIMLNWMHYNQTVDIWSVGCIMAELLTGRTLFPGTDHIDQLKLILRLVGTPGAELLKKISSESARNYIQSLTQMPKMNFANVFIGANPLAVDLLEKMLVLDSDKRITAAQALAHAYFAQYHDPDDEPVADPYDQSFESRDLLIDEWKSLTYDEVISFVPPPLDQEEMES
- protocolDetails: Inhibitory activity against Mitogen-activated protein kinase p38 alpha 2 (expressed Escherichia coli) at concentration of 500 nM
In this section we review reported inhibition values for a set of compounds.
Reply with just the number (in %).

Recorded inhibition, per entry:
compoundSmiles | inhibition, %
Cc1cc(NC(=O)Nc2cccc(Cl)c2Cl)on1 | 4
CCCCc1cc(NC(=O)Nc2cccc(Cl)c2Cl)on1 | 33
CCC(C)(C)c1noc(NC(=O)Nc2cccc(Cl)c2Cl)c1C | 18
CC(C)(C)c1ccc(NC(=O)Nc2cccc(Cl)c2Cl)s1 | 82
CC(C)(C)c1cc(NC(=O)Nc2cccc(Cl)c2Cl)cs1 | 76
CC(C)(C)c1cc(NC(=O)Nc2ccccc2C(F)(F)F)no1 | 36
CC(C)(C)c1cc(NC(=O)Nc2ccc(C(F)(F)F)cc2)no1 | 39
CC(C)(C)c1cc(NC(=O)Nc2ccc(F)cc2)on1 | 41
Cc1cccc(NC(=O)Nc2cc(C(C)(C)C)no2)c1C | 49
CC(C)(C)c1cc(NC(=O)Nc2ccc(C(F)(F)F)cc2)on1 | 77

API: value(readout= inhibition, system= Mitogen-activated protein kinase 14 (Homo sapiens), query= Cc1cccc(NC(=O)Nc2cc(C(C)(C)C)on2)c1C )
54

Which measured inhibition belongs to CC(C)(C)c1cc(NC(=O)Nc2ccc(Cl)cc2)on1 , tested on Mitogen-activated protein kinase 14 (Homo sapiens)?
68

Enter reported inhibition observed with Mitogen-activated protein kinase 14 (Homo sapiens) for CC(C)(C)c1nnc(NC(=O)Nc2cccc(Cl)c2Cl)s1
1

Requested read-out inhibition, target or system Mitogen-activated protein kinase 14 (Homo sapiens), entry CC(C)(C)c1cc(NC(=O)Nc2ccccc2)no1
33

Lab request: please report inhibition under test system Mitogen-activated protein kinase 14 (Homo sapiens) for CC(C)(C)c1cc(NC(=O)Nc2cccc(Cl)c2Cl)on1
93

Cited source: ChEMBL document CHEMBL1133306
